Tested on: TTR
Experiment: TTR editing in HEK293_Cas9 cells transfected with dgRNAs (Table 4)
Type: cell-based, human
Conditions: HEK293_Cas9 cells (constitutively express Spy Cas9) transfected with dgRNAs
Method: HEK293 Cas9 cell line. The human embryonic kidney adenocarcinoma cell line HEK293 constitutively expressing Spy Cas9 (“HEK293_Cas9”) was cultured in DMEM media supplemented with 10% fetal bovine serum and 500 μg/ml G418. […] To quantitatively determine the efficiency of editing at the target location in the genome, sequencing was utilized to identify the presence of insertions and deletions introduced by gene editing. […]
I'd be grateful if you could share measured Avg % Deletion for these entries.
Write the value in % as a bare number.

Recorded result, GUAUUCACAGCCAACGACUC (tested as dual guide RNA, chemistry not given here) [CR003373] , Avg % Deletion: 12.25

Recorded result, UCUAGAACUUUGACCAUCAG (tested as dual guide RNA, chemistry not given here) [CR003345] , Avg % Deletion: 16.01

Recorded result, AAGUGCCUUCCAGUAAGAUU (tested as dual guide RNA, chemistry not given here) [CR003368] , Avg % Deletion: 36.61

Recorded result, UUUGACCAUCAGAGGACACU (tested as dual guide RNA, chemistry not given here) [CR003344] , Avg % Deletion: 29.54

---

tested on: TTR; test: TTR editing in primary cyno hepatocytes electroporated with Spy Cas9 protein and dgRNAs (Tables 10, 11); format: cell-based, cynomolgus monkey; conditions: Table 10; primary cyno hepatocytes electroporated with Spy Cas9 protein (RNP) and dgRNAs
I'd be grateful if you could share measured Avg % Edit for these entries.
Write the value in % as a bare number.

Simply: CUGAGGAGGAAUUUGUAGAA (tested as dual guide RNA, chemistry not given here) [CR003364] , TTR, Avg % Edit = 19.62

Simply: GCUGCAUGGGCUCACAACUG (tested as dual guide RNA, chemistry not given here) [CR003361] , TTR, Avg % Edit = 4.53

Simply: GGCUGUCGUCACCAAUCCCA (tested as dual guide RNA, chemistry not given here) [CR003391] , TTR, Avg % Edit = 36.44

Simply: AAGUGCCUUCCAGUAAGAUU (tested as dual guide RNA, chemistry not given here) [CR003368] , TTR, Avg % Edit = 18.56

---

system: TTR; test: TTR editing in primary cyno hepatocytes electroporated with Spy Cas9 protein and dgRNAs (Tables 10, 11); assay type: cell-based, cynomolgus monkey; conditions: Table 10; primary cyno hepatocytes electroporated with Spy Cas9 protein (RNP) and dgRNAs
I'd be grateful if you could share measured Avg % Edit for these entries.
Write the value in % as a bare number.

Recorded result, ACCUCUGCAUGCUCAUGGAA (tested as dual guide RNA, chemistry not given here) [CR003371] , Avg % Edit: 1.83

Recorded result, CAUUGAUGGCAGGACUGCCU (tested as dual guide RNA, chemistry not given here) [CR003347] , Avg % Edit: 72.41

Recorded result, GUCACAGAAACACUCACCGU (tested as dual guide RNA, chemistry not given here) [CR005301] , Avg % Edit: 46.76

Recorded result, UGAAUCCAAGUGUCCUCUGA (tested as dual guide RNA, chemistry not given here) [CR005303] , Avg % Edit: 59.28

Recorded result, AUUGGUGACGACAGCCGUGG (tested as dual guide RNA, chemistry not given here) [CR003389] , Avg % Edit: 18.83

Recorded result, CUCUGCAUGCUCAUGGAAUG (tested as dual guide RNA, chemistry not given here) [CR003369] , Avg % Edit: 1.53

Recorded result, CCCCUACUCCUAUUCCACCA (tested as dual guide RNA, chemistry not given here) [CR003385] , Avg % Edit: 30.96
